Molecular target: tubulin covalently linked to a biotinylated stathmin-like peptide
Assay: ELISA (off-rate estimation)
Conditions: chain shown with the change; incubation with 100 nM soluble tubulin to prevent rebinding; 2 nM biotinylated peptide-coupled tubulin for coating; parent: est. 0.046; read off a plot
response overview
Give the number; AU is assumed, so skip it.

See these solved cases before continuing.
Binder	response [AU]
DARPin D1 I152T (protein) MRGSHHHHHHGSDLGKKLLEAARAGQDDEVRILMANGADVNATDASGLTPLHLAATYGHLEIVEVLLKHGADVNAIDIMGSTPLHLAALIGHLEIVEVLLKHGADVNAVDTWGDTPLHLAAIMGHLEIVEVLLKHGADVNAQDKFGKTAFDTSIDNGNEDLAEILQKLN	0.075
DARPin D1 I32V; N74S; I76S; I78L; H118R; I122V; E127K; V131A; F150Y; I152T; N158S (protein) MRGSHHHHHHGSDLGKKLLEAARAGQDDEVRVLMANGADVNATDASGLTPLHLAATYGHLEIVEVLLKHGADVSASDLMGSTPLHLAALIGHLEIVEVLLKHGADVNAVDTWGDTPLRLAAVMGHLKIVEALLKHGADVNAQDKFGKTAYDTSIDNGSEDLAEILQKLN	0.38

Next, consider the following binder.
Req: Provide response value for the following binder: DARPin D1 N158S (protein) MRGSHHHHHHGSDLGKKLLEAARAGQDDEVRILMANGADVNATDASGLTPLHLAATYGHLEIVEVLLKHGADVNAIDIMGSTPLHLAALIGHLEIVEVLLKHGADVNAVDTWGDTPLHLAAIMGHLEIVEVLLKHGADVNAQDKFGKTAFDISIDNGSEDLAEILQKLN
Resp: 0.045
